molecular target: Chromo domain-containing protein 1 (Saccharomyces cerevisiae (strain ATCC 204508 / S288c) (Baker's yeast)) (UniProt P32657); test: ScCHD-1 Enzyme Inhibition Assay; type: functional; design: scale not given: in the data most compounds retested in dose-response had high values; conditions: 30 µM
Sequence (P32657 whole entry, the tested form may be a part): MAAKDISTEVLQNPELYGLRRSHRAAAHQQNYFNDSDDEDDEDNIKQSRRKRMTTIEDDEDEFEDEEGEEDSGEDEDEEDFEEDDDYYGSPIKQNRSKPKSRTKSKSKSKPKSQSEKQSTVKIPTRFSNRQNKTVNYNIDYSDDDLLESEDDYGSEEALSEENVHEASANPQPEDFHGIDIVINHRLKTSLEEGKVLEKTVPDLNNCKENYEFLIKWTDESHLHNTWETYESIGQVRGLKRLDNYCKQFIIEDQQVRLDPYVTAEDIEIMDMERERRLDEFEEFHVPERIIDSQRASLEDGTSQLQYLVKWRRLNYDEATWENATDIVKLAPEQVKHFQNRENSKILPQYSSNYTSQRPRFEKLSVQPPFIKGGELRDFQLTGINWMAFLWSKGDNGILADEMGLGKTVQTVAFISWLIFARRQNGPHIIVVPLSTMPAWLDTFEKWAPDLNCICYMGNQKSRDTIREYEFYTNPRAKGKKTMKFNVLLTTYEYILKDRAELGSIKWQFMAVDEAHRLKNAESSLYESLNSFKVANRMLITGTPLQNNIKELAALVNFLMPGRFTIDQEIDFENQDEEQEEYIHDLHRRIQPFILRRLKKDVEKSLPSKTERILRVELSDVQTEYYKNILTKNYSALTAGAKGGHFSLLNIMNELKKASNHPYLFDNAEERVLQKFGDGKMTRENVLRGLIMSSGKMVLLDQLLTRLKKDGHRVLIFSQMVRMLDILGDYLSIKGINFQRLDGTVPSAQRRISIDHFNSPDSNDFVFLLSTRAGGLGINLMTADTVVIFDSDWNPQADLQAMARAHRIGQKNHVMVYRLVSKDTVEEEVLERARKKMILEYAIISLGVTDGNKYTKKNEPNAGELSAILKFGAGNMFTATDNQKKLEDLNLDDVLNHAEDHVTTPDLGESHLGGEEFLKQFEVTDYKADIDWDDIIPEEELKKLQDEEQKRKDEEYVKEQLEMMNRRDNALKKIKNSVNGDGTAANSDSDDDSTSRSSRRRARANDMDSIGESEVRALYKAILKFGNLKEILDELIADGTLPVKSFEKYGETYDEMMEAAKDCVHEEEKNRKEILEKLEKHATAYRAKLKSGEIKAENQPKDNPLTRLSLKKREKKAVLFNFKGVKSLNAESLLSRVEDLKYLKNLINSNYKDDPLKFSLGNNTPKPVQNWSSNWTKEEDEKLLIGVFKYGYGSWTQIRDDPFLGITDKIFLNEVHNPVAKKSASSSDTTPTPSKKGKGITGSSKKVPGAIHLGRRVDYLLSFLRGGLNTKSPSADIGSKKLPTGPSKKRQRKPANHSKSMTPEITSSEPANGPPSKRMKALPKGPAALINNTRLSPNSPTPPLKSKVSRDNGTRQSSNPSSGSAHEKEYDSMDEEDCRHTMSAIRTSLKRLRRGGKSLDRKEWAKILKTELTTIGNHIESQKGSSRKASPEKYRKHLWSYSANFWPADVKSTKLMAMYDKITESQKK

COMPOUND | Percent Effect
CCn1c(NCc2ccco2)nc2c(C)nn(C)c2c1=O | -14%
Cc1ccc2c(c1)OCCCC2NCc1nnc2n1CCCCC2 (centres undefined) | -11.7%
Cn1cc(CN2CCC3(CCCN3S(C)(=O)=O)CC2)cn1 | -1.37%
COc1ccc(F)cc1S(=O)(=O)NCC(c1cccn1C)N(C)C (centres undefined) | -6.57%
Cc1ccc(CN2CCc3c(C(=O)N(C)C)nn(C)c3C2)s1 | -4.79%
CSc1ccc(-c2nc(CN3CCC(NC(C)=O)C3)c(C)o2)cc1 (centres undefined) | -1.88%
CC(C)Cc1nc(OCC(N)=O)c(C#N)c2c1CCC2 | -3.73%
Cc1ccc(CNCCOc2ccc(S(C)(=O)=O)cc2)cc1 | 3.43%
Cc1ccc(F)cc1NC(=O)NCC(C)N1CCOCC1 (centres undefined) | 3.74%
Cn1nc(CNC(=O)c2nc3ccccc3s2)c2c1CCOC2 | -5.4%
c1ccc(-c2ccc(C3CNCCO3)nc2)cc1 (centres undefined) | -25.7%
O=C(c1cc(C2CC2)on1)N1CCCC(n2cncn2)C1 (centres undefined) | 30.2%
N#Cc1ccc(OCCN2CCc3c(ncn3C3CC3)C2)cc1 | -10.1%
Cc1ccc(-c2cc(N)c(=O)n(CC(=O)NCC3CCCCC3)n2)s1 | -4.23%

----------
Each entry below carries its recorded Percent Effect.
Molecular target: Tyrosyl-tRNA synthetase, putative (Trypanosoma cruzi (strain CL Brener)) (UniProt Q4DSP6)
Sequence (whole entry): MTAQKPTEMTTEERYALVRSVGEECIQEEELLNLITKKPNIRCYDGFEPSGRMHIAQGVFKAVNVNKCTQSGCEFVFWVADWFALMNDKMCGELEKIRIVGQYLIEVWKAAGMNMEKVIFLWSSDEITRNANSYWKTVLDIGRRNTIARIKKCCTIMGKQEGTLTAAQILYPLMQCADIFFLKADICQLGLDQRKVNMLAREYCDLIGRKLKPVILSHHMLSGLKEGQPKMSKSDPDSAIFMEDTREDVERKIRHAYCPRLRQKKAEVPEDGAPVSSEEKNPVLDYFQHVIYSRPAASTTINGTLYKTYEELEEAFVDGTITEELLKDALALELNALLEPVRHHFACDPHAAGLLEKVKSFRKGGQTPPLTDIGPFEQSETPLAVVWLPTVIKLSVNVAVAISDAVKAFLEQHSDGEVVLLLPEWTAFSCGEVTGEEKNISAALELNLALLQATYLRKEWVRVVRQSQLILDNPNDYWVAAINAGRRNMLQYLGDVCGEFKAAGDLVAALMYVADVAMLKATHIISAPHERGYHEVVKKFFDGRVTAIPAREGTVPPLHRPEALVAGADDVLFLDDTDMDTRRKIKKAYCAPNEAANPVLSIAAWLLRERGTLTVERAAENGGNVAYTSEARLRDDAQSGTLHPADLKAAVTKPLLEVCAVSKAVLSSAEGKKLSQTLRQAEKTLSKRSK
Assay: Trypanosoma cruzi tyrosyl tRNA synthetase (TcYRS) SOP
Assay type: functional
Design: scale not given: direction of the effect not stated beside the values
Settings: 30 µM

COMPOUND | Percent Effect
COCCOCc1cccc(NC(=O)N2CCCC2c2ccncc2)c1 (configuration not stated) | 7.06%
CCc1nc(CN2CCCN(C(=O)C(C)n3cncn3)CC2)cs1 (configuration not stated) | 2.44%
O=C(NCCNc1ccccn1)N1CCSCC1 | 1.24%
CC(C)N(C)CCCNC(=O)c1cnc(-c2ccccc2)nc1 | 18.5%
Cc1ccc(NC(=O)C2=CN=S=N2)cc1 | 10%
Cn1ccnc1CN1C[C@@H](CN2CCC(CO)CC2)[C@@H](CO)C1 | 14.6%
CN1CCc2c(C#N)c(NCc3ccco3)n3cnnc3c2C1 | 15.6%
CN(C(=O)Cc1c[nH]c2ccccc12)C1CCN(c2ccccn2)CC1 | 0%
Cc1noc(CN2CCOC(CN(C)C)C2)n1 (configuration not stated) | 18.3%
CC(C)c1cc(NC(=O)c2ccc(C(=O)NC(C)(C)C)cc2)[nH]n1 | 24.4%
COCC1COCCC12CCN(CCc1ccccc1)CC2 (configuration not stated) | 8.54%
O=C(NCc1ccco1)[C@H]1C[C@H]2OCC[C@H]2N(C(=O)c2ccncc2)C1 | 2.5%

----------
Entries annotated with measured Percent Effect
molecular target: AMP-activated protein kinase, AMPK (Homo sapiens) (UniProt P54646+O43741+P54619+Q9UGJ0+Q9Y478+Q13131+Q9UGI9); test: AMP-dependent Kinase enzyme assay. An in vitro enzyme assay that detects ADP turnover that is directly proportional to AMPK activity. This uses naive AMPK that is activated during the assay with MK-8722; assay type: functional; design: scale not given: direction of the effect not stated beside the values; details: 30 µM
MEASUREMENT NAME: Percent Effect (%)

COMPOUND | UNIT LABEL | REPORTED VALUE
Cc1ccc(-c2cc(N)c(=O)n(CC(=O)NCC3CCCCC3)n2)s1 | % | 11.8
O=C(NCCn1ccc(-c2ccncc2)n1)c1ccncc1 | % | -0.372
Cn1cnc2c1C(COCc1cccnc1)N(Cc1ccccn1)CC2 (stereo unspecified) | % | -12.6
CNC(=O)C1(CCCc2ccncc2)CCCN1 (stereo unspecified) | % | 14.6
Cc1nnsc1C(=O)N1CCC2(CC1)c1nc[nH]c1CCN2CC(C)C | % | -0.152
Cc1noc(C)c1CNC(=O)N1CCN(Cc2cscn2)CC1 | % | -5.03
CC(C)Cc1nc(OCC(=O)O)c(C#N)c2c1CCC2 | % | -5.52
CCOc1ncccc1NC(=O)N1CCN(c2cccc(C)c2C)CC1 | % | 2.83
N#Cc1ccccc1OCCN1CCC(N2CCNC2=O)CC1 | % | -4.78
COc1ccccc1C(=O)N1CC(Cc2nccc3ccn(C)c23)C1 | % | 2.79
Fc1ccc(OCc2noc(CN3CCc4cncnc4C3)n2)cc1 | % | -14.5
CC(C)(N)CN1CCC(c2nnc(CN3CCCC3)n2C2CC2)CC1 | % | 3.2
Cc1cc2c(=O)n3c(nc2s1)CCN(C(=O)c1scnc1C)CC3 | % | 9.3
Cc1cc(C)n(CC2CN(Cc3cscn3)CCO2)n1 (stereo unspecified) | % | -2.52
Cn1ccc(CN2CCC(CO)CC2)cc1=O | % | 2.26
CNC(=O)CS(=O)(=O)C1CCN(S(=O)(=O)c2c(F)cccc2F)CC1 | % | 6.92
CC(=O)NC(C)c1ccc(OCC2CC2)c(F)c1 (stereo unspecified) | % | -0.202
O=C1CO[C@@H]2CN(CC3CCOCC3)C[C@H]2N1CC1CC1 | % | 5.33
O=C(NCCn1ccc(-c2ccccn2)n1)c1ccncc1 | % | -7.04
CC(C(=O)NCCOc1cccc(Cl)c1)n1cncn1 (stereo unspecified) | % | -0.802
O=C(O)c1nnn(Cc2cccc(C(F)(F)F)c2)c1-c1cccnc1 | % | 10.2
O=C(c1cccc2c1OCO2)N1CCCC1c1noc(C2CC2)n1 (stereo unspecified) | % | -1.36
Cc1cnn(CC2CCCN2Cc2coc(-c3cccs3)n2)c1 (stereo unspecified) | % | 3.45
CC(C)c1nnc(CN2CCCC2Cn2cncn2)o1 (stereo unspecified) | % | -9.21
Cc1ccc(-c2nnc(CN3CCOC(Cn4cccn4)C3)o2)cc1 (stereo unspecified) | % | -1.13
CCN(CC1CCCO1)C(=O)Nc1cc(OC)c(OC)cc1C (stereo unspecified) | % | -14.4
CSCc1nc(C(C)(C)NC(=O)OC(C)(C)C)no1 | % | -2.2
CCc1cnc2c(c1NCc1cccc(OC)c1)c(=O)n(C)c(=O)n2C | % | -3.97
CCOCCCNC(=O)c1ccccc1S(C)(=O)=O | % | 7.43
Cc1ccc(N2CC[C@H]3C[C@@H](C(=O)N4CCOCC4)O[C@H]3C2)nn1 | % | -1.79
Cc1noc(C)c1CCC(=O)NC(C)c1nnc2n1CCC2 (stereo unspecified) | % | 5.84
CCNC(=O)c1cnc(Cc2ccc(F)cc2)s1 | % | 3.74
CC(C)NC(=O)Nc1ccc(CS(=O)(=O)C(C)(C)C)cc1 | % | 7.37
CN(C)S(=O)(=O)c1ccc(CN2CCCC2c2ccc[nH]2)o1 (stereo unspecified) | % | -1.76
CN(C)C(=O)CS(=O)(=O)Cc1cc(Cl)c2c(c1)OCCCO2 | % | 2.36
O=C(NCCNc1ncccn1)N1CCCC(C(F)(F)F)C1 (stereo unspecified) | % | 3.11

----------
test system: Trypanosoma cruzi; assay: Trypanosoma cruzi phosphomannomutase and mannose-1-phosphate guanylyltransferase assay; type: functional; parameters: scale not given: direction of the effect not stated beside the values; conditions: 10 µM
MEASUREMENT NAME: Percent Effect (%)

COMPOUND | UNIT LABEL | REPORTED VALUE
c1ccc(OCCCN2CCN(c3ccc4nncn4n3)CC2)cc1 | % | 8.61
Cc1ncsc1CCC(=O)N1CCCC[C@H](N(C)C)C1 | % | 9.02
Cc1ccc(NC(=O)C2CSCN2C(=O)c2cc[nH]n2)c(C)c1 (centres undefined) | % | 4.79
Cc1ccc(-n2nnc(C(=O)NS(C)(=O)=O)c2C2CC2)cc1 | % | 7.52
Cc1cnn(C2CCCN(C(=O)c3ccnc(-n4ccnc4)c3)C2)c1 (centres undefined) | % | -0.513
CC1COCCN1Cc1nc(-c2cccc(Br)c2)no1 (centres undefined) | % | -8.4
CC(=O)Nc1nc(CN2CCCC2Cn2cc(C)cn2)cs1 (centres undefined) | % | 1.08
CCOc1ccc(CC(CNC(=O)c2ccoc2)C(N)=O)cc1 (centres undefined) | % | 8.13
CS(=O)(=O)NCc1cc2n(n1)CCCN(Cc1cccc(C#N)c1)C2 | % | 7.47
